Multi-source literature compilation: pIC50 on UniProt O00763.
Hey, just a heads up that pIC50 is the negative log base 10 of the concentration in molar.

| molecule | reportedResult |
| --- | --- |
| CC(=O)N[C@@H](C)c1ccc(O[C@@H]2CCN(c3ccnc(OCc4cccc(F)c4)c3)C2)cc1 | 6.32 |
| C[C@H](NC(=O)c1cnn(C)c1)c1ccc(C2CN(c3ccc4c(c3)OCCO4)C2)cc1 | 5.77 |
| Cc1cc(OC2CC2)ccc1N1CC[C@@H](Oc2ccc([C@H](C)NC(=O)c3cncs3)cc2)C1 | 6.59 |
| CN(c1nccc(N2CCC(c3ccc(CC(=O)NCc4ccccc4)cc3)CC2)n1)C1CCCC1 | 5.10 |
| CC(=O)NC(C)Cc1ccc(C#Cc2ccc(C(=O)N3CCCC3)cc2)cc1 (centres unmarked) | 5.85 |
| CC(C(=O)NC1CC1C)c1ccc(O[C@@H]2CCN(c3ncnc(OCC(C)(F)F)c3F)C2)cc1 (some centres unmarked) | 6.61 |

Here is another molecule to look at.
Result for `CC(=O)N[C@@H](C)c1ccc(C2CN(c3ccc(OC4CCC4)cc3)C2)cc1` , tested on UniProt O00763, pIC50: 5.79

====

Multi-source literature compilation: IC50 on human ACC2 (Homo sapiens (Human)).
Consider the cut-off 600 nM. If the recorded IC50 is strictly smaller, the label is Met; if not, the label is Not met.

Query block: Strictly below 600 nM: is that where IC50 of CC(=O)NC(C)Cc1ccc(C#Cc2ccnc(N3CCOCC3)n2)cc1 (stereo not shown) sits?
Result block: Not met

Query block: Strictly below 600 nM: is that where IC50 of CCCOc1cc(N2CCC(Oc3ccc([C@H](C)NC(C)=O)cc3)C2)ccn1 (stereo partly shown) sits?
Result block: Met

Query block: Strictly below 600 nM: is that where IC50 of C[C@H](NC(=O)C1CCC[C@@H]1N)c1ccc(CN2Cc3ccc(OCC4CC4)cc3C(F)C2)cc1 (stereo partly shown) sits?
Result block: Not met

Query block: Strictly below 600 nM: is that where IC50 of CCCN(C)c1nccc(C#Cc2ccc(CC(C)NC(C)=O)cc2)n1 (stereo not shown) sits?
Result block: Met

Query block: Strictly below 600 nM: is that where IC50 of `Cc1ncncc1C(=O)N[C@@H](C)c1ccc(O[C@@H]2CCN(c3ccc(OCC4CC4)cc3)C2)cc1` sits?
Result block: Met

====

Multi-source literature compilation: pIC50 on human ACC2 (Homo sapiens (Human)).
Hey, just a heads up that pIC50 is the negative log base 10 of the concentration in molar.

| compound | pIC50 |
| --- | --- |
| CCCOc1cc(C#Cc2ccc(CC(C)NC(=O)C3CC3)cc2)ccn1 (stereo not shown) | 6.44 |

Summary for this compound, CCC(CC)Oc1cccc(C#Cc2ccc(CC(C)NC(C)=O)cc2)c1 (stereo not shown) : pIC50 is 6.09

Summary for this compound, CC(=O)NC(C)Cc1ccc(C#Cc2ccc(OCCC(C)C)nn2)cc1 (stereo not shown) : pIC50 is 5.51

Summary for this compound, `Cc1ccc(-c2ccc(Cl)cc2)cc1C1=C(O)C(C)(C)CNC1=O` : pIC50 is 5.04

Summary for this compound, CCNC(=O)C(C)c1ccc(C#Cc2ccc(OC(C)(C)C)cc2)cc1 (stereo not shown) : pIC50 is 6.44

Summary for this compound, CCCOc1cc(N2CCC(Oc3ccc([C@H](C)NC(C)=O)cc3)C2)c(C)cn1 (stereo partly shown) : pIC50 is 6.42

Summary for this compound, COc1cc(F)c(N2CCC(Oc3ccc([C@H](C)NC(C)=O)cc3)C2)cc1F (stereo partly shown) : pIC50 is 6.42
